Please go through the items and note down their pIC50.
// pIC50 here means minus log10 of the molar concentration (mol/L)

Report measured pIC50 on 17-beta-hydroxysteroid dehydrogenase type 3 (Homo sapiens, UniProt P37058); entry: C[C@@H]1CN(S(=O)(=O)c2ccccc2C(F)(F)F)[C@@H](C)CN1C[C@]1(O)CC[C@@]2(C)[C@H](CC[C@@H]3[C@@H]2CC[C@@]2(C)C(=O)CC[C@@H]32)C1 6.82

Report measured pIC50 on 17-beta-hydroxysteroid dehydrogenase type 3 (Homo sapiens, UniProt P37058); entry: C[C@@H]1CN(S(=O)(=O)c2ccccc2C(F)(F)F)[C@@H](C)CN1C[C@@]1(O)CC[C@@]2(C)[C@@H](CC[C@@H]3[C@@H]2CC[C@@]2(C)C(=O)CC[C@@H]32)C1 5.96
